# Tested on: Wnt activity (Sp5-Luc reporter, SW480 colon carcinoma cells)
# Assay Notes: Wnt activity screening assay, Sp5-Luc reporter gene in SW480 cells
# Type: cell-based
# Reported Conditions: Homo sapiens, SW480; read-out: percent inhibition at 10 μM
Give inhibition at 10 µM for every item shown.
Report as a plain number; the unit % is understood.

Problem: Could you tell me which inhibition at 10 µM is on file for CCCCC(=O)Nc1cncc(-c2cnc3[nH]nc(-c4cc5c(-c6ccncc6)cncc5[nH]4)c3c2)c1 [Compound 131] ?
Result: 3.4

Problem: And for O=C(Nc1cncc(-c2cnc3[nH]nc(-c4cc5c(-c6ccncc6)cncc5[nH]4)c3c2)c1)C1CCCC1 [Compound 134] ?
Result: 0

Problem: Next record, please: CCC(=O)Nc1cncc(-c2cnc3[nH]nc(-c4cc5c(-c6cccnc6)cncc5[nH]4)c3c2)c1 [Compound 85]
Result: 9.3

Problem: Now the same for CC(C)(C)C(=O)Nc1cncc(-c2cnc3[nH]nc(-c4cc5c(-c6ccncc6)cncc5[nH]4)c3c2)c1 [Compound 120]
Result: 5

Problem: Same question, CC(C)(C)CC(=O)Nc1cncc(-c2cnc3[nH]nc(-c4cc5c(-c6cccnc6)cncc5[nH]4)c3c2)c1 [Compound 100] this time
Result: 17.3

Problem: And Nc1cncc(-c2cnc3[nH]nc(-c4cc5c(-c6ccncc6)cncc5[nH]4)c3c2)c1 [Compound 115] ?
Result: 13.9

Problem: Now try CN(C)Cc1cncc(-c2cnc3[nH]nc(-c4cc5c(-c6ccoc6)cncc5[nH]4)c3c2)c1 [Compound 321] .
Result: 15.4

---

# System: IL-6
# Assay Notes: IL-6 inhibition in LPS-stimulated THP-1 cells (HTRF)
# Type: cell-based
# Reported Conditions: Homo sapiens; THP-1 cells, LPS 500 ng/mL, 22 hours, IL6 HTRF
Value Type: EC50 (µM)
Give the value in µM but do not write µM after it.

Problem: Give IL-6 EC50 for Fc1ccc(-c2cncc3[nH]c(-c4n[nH]c5ncc(-c6cncc(CN7CCCC7)c6)cc45)cc23)cc1
Result: 3.27

Problem: Try this compound too: CS(=O)(=O)NCc1cc(F)cc(-c2cncc3[nH]c(-c4n[nH]c5ncc(-c6cncc(NC(=O)C7CC7)c6)cc45)cc23)c1
Result: 0.093

Problem: Same read-out for O=C(Nc1cncc(-c2cnc3[nH]nc(-c4cc5c(-c6ccccc6F)cncc5[nH]4)c3c2)c1)C1CCCC1 ?
Result: 1.29

---

# System: IL-6
# Assay Notes: IL-6 inhibition in LPS-stimulated THP-1 cells (HTRF)
# Format: cell-based
# Reported Conditions: Homo sapiens; THP-1 cells, LPS 500 ng/mL, 22 hours, IL6 HTRF
For each record, write down the corresponding EC50.
All answers are understood in µM, so give the number only.

Problem: Requested field: EC50. Item: c1cncc(-c2cncc3[nH]c(-c4n[nH]c5ncc(-c6cncnc6)cc45)cc23)c1
Result: 6.59

Problem: Follow-up item: c1ccc(-c2cnc3[nH]nc(-c4cc5ccncc5[nH]4)c3c2)nc1
Result: 3.75

Problem: Another compound to look at: CCCC(=O)Nc1cncc(-c2cnc3[nH]nc(-c4cc5c(-c6cc(F)cc(CNS(C)(=O)=O)c6)cncc5[nH]4)c3c2)c1
Result: 0.093

Problem: // same read-out, input: Fc1ccccc1-c1cncc2[nH]c(-c3n[nH]c4ncc(-c5cn[nH]c5)cc34)cc12
Result: 0.169

Problem: Quick one: Nc1cncc(-c2cnc3[nH]nc(-c4cc5c(-c6ccncc6)cncc5[nH]4)c3c2)c1
Result: 0.412

Problem: Next: Fc1cccc(-c2cncc3[nH]c(-c4n[nH]c5ncc(-c6cccnc6)cc45)cc23)c1
Result: 0.232

Problem: CC(C)(C)CC(=O)Nc1cncc(-c2cnc3[nH]nc(-c4cc5c(-c6cccnc6)cncc5[nH]4)c3c2)c1 ?
Result: 0.647

Problem: Thanks! And CC(C)(C)CC(=O)Nc1cncc(-c2cnc3[nH]nc(-c4cc5c(-c6ccccc6F)cncc5[nH]4)c3c2)c1 ?
Result: 3.12

Problem: Record: CCNCc1cncc(-c2cnc3[nH]nc(-c4cc5c(N6CCCCC6)cncc5[nH]4)c3c2)c1
Result: 3.4

Problem: # iterate: CC(C)Nc1cncc(-c2cnc3[nH]nc(-c4cc5c(-c6ccncc6)cncc5[nH]4)c3c2)c1
Result: 0.068

Problem: Same lookup for CCNCc1cncc(-c2cnc3[nH]nc(-c4cc5ccncc5[nH]4)c3c2)c1 , please.
Result: 1.55

Problem: Record: FC1(F)CCN(Cc2cncc(-c3cnc4[nH]nc(-c5cc6c(-c7ccncc7)cncc6[nH]5)c4c3)c2)C1
Result: 0.486
